src = the supplement of paper PMC7125110

As shown below, each of these variants has a reported self-cleavage kobs at 10000 uM GlcN6P value.
B1: glmS ribozyme (parent)
chain: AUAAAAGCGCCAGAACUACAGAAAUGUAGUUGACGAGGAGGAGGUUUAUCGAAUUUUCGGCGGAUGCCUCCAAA

- Variants of: B1
- experiment-notes: self-cleavage kobs at 10000 uM GlcN6P; higher = faster cleavage; RNA array
- test-parameters: with glucosamine-6-phosphate
Variants at the floor of the assay were thinned out.

[
  {
    "mutation-code": "G59U A64U",
    "bound-sign": "<",
    "self-cleavage kobs at 10000 uM GlcN6P, s⁻¹": "1e-05"
  },
  {
    "mutation-code": "G44C G51A A53C",
    "bound-sign": "<",
    "self-cleavage kobs at 10000 uM GlcN6P, s⁻¹": "1e-05"
  },
  {
    "mutation-code": "U30C A48U",
    "bound-sign": "<",
    "self-cleavage kobs at 10000 uM GlcN6P, s⁻¹": "1e-05"
  },
  {
    "mutation-code": "A12C G63A",
    "bound-sign": "<",
    "self-cleavage kobs at 10000 uM GlcN6P, s⁻¹": "1e-05"
  },
  {
    "mutation-code": "A6G U65A",
    "bound-sign": "=",
    "self-cleavage kobs at 10000 uM GlcN6P, s⁻¹": "6.05e-05"
  },
  {
    "mutation-code": "A39C U55A",
    "bound-sign": "=",
    "self-cleavage kobs at 10000 uM GlcN6P, s⁻¹": 0.00755
  },
  {
    "mutation-code": "A15G U46C",
    "bound-sign": "=",
    "self-cleavage kobs at 10000 uM GlcN6P, s⁻¹": 0.00388
  },
  {
    "mutation-code": "A48U C71A",
    "bound-sign": "=",
    "self-cleavage kobs at 10000 uM GlcN6P, s⁻¹": 0.000111
  },
  {
    "mutation-code": "A15U U55A",
    "bound-sign": "=",
    "self-cleavage kobs at 10000 uM GlcN6P, s⁻¹": 0.00586
  },
  {
    "mutation-code": "G29C G32U C67A",
    "bound-sign": "=",
    "self-cleavage kobs at 10000 uM GlcN6P, s⁻¹": 0.00017
  },
  {
    "mutation-code": "G40U A64G",
    "bound-sign": "=",
    "self-cleavage kobs at 10000 uM GlcN6P, s⁻¹": 0.00026
  },
  {
    "mutation-code": "A39G C68U",
    "bound-sign": "=",
    "self-cleavage kobs at 10000 uM GlcN6P, s⁻¹": 0.0156
  },
  {
    "mutation-code": "A12C G35U U47C A48U",
    "bound-sign": "<",
    "self-cleavage kobs at 10000 uM GlcN6P, s⁻¹": "1e-05"
  },
  {
    "mutation-code": "C8U G9A C16U C50U A52U",
    "bound-sign": "<",
    "self-cleavage kobs at 10000 uM GlcN6P, s⁻¹": "1e-05"
  },
  {
    "mutation-code": "A36U C67G C68G C71U",
    "bound-sign": "=",
    "self-cleavage kobs at 10000 uM GlcN6P, s⁻¹": "5.06e-05"
  },
  {
    "mutation-code": "A48U A52G G63A",
    "bound-sign": "<",
    "self-cleavage kobs at 10000 uM GlcN6P, s⁻¹": "1e-05"
  },
  {
    "mutation-code": "U56A U69G",
    "bound-sign": "=",
    "self-cleavage kobs at 10000 uM GlcN6P, s⁻¹": "4.58e-05"
  },
  {
    "mutation-code": "G38A C58U G59U",
    "bound-sign": "<",
    "self-cleavage kobs at 10000 uM GlcN6P, s⁻¹": "1e-05"
  },
  {
    "mutation-code": "U46C U56G",
    "bound-sign": "=",
    "self-cleavage kobs at 10000 uM GlcN6P, s⁻¹": 0.00164
  },
  {
    "mutation-code": "U49C C50U",
    "bound-sign": "<",
    "self-cleavage kobs at 10000 uM GlcN6P, s⁻¹": "1e-05"
  },
  {
    "mutation-code": "G37U G44U G60U",
    "bound-sign": "<",
    "self-cleavage kobs at 10000 uM GlcN6P, s⁻¹": "1e-05"
  },
  {
    "mutation-code": "A42G G63A U69G",
    "bound-sign": "<",
    "self-cleavage kobs at 10000 uM GlcN6P, s⁻¹": "1e-05"
  },
  {
    "mutation-code": "A52G U57A",
    "bound-sign": "=",
    "self-cleavage kobs at 10000 uM GlcN6P, s⁻¹": 0.000289
  },
  {
    "mutation-code": "G35C C50G A53C",
    "bound-sign": "=",
    "self-cleavage kobs at 10000 uM GlcN6P, s⁻¹": "3.34e-05"
  },
  {
    "mutation-code": "G9A A36U U45A A64C",
    "bound-sign": "<",
    "self-cleavage kobs at 10000 uM GlcN6P, s⁻¹": "1e-05"
  },
  {
    "mutation-code": "U56A C71G",
    "bound-sign": "=",
    "self-cleavage kobs at 10000 uM GlcN6P, s⁻¹": 0.000952
  },
  {
    "mutation-code": "C11U A53G",
    "bound-sign": "=",
    "self-cleavage kobs at 10000 uM GlcN6P, s⁻¹": 0.00145
  },
  {
    "mutation-code": "A6C A12C G59C",
    "bound-sign": "<",
    "self-cleavage kobs at 10000 uM GlcN6P, s⁻¹": "1e-05"
  },
  {
    "mutation-code": "A33C A52G U54A",
    "bound-sign": "<",
    "self-cleavage kobs at 10000 uM GlcN6P, s⁻¹": "1e-05"
  },
  {
    "mutation-code": "C71A",
    "bound-sign": "=",
    "self-cleavage kobs at 10000 uM GlcN6P, s⁻¹": 0.0124
  },
  {
    "mutation-code": "C10U A12G G43U",
    "bound-sign": "<",
    "self-cleavage kobs at 10000 uM GlcN6P, s⁻¹": "1e-05"
  },
  {
    "mutation-code": "A15G G40U C70A",
    "bound-sign": "=",
    "self-cleavage kobs at 10000 uM GlcN6P, s⁻¹": 0.000531
  },
  {
    "mutation-code": "G29U U31A",
    "bound-sign": "=",
    "self-cleavage kobs at 10000 uM GlcN6P, s⁻¹": 0.00369
  },
  {
    "mutation-code": "C8A U65G",
    "bound-sign": "<",
    "self-cleavage kobs at 10000 uM GlcN6P, s⁻¹": "1e-05"
  },
  {
    "mutation-code": "C16G C50A U56C U69G",
    "bound-sign": "<",
    "self-cleavage kobs at 10000 uM GlcN6P, s⁻¹": "1e-05"
  },
  {
    "mutation-code": "U30C G35C G59C",
    "bound-sign": "<",
    "self-cleavage kobs at 10000 uM GlcN6P, s⁻¹": "1e-05"
  },
  {
    "mutation-code": "A14C G40U U56G",
    "bound-sign": "=",
    "self-cleavage kobs at 10000 uM GlcN6P, s⁻¹": 0.00853
  },
  {
    "mutation-code": "G40U U49G",
    "bound-sign": "=",
    "self-cleavage kobs at 10000 uM GlcN6P, s⁻¹": "6.94e-05"
  },
  {
    "mutation-code": "A14U G32C C67A",
    "bound-sign": "=",
    "self-cleavage kobs at 10000 uM GlcN6P, s⁻¹": "8.69e-05"
  },
  {
    "mutation-code": "A52U G60C",
    "bound-sign": "<",
    "self-cleavage kobs at 10000 uM GlcN6P, s⁻¹": "1e-05"
  },
  {
    "mutation-code": "U31G G40A",
    "bound-sign": "=",
    "self-cleavage kobs at 10000 uM GlcN6P, s⁻¹": 0.00301
  }
]
